# System: RXRa homodimer (NR concentration 180 nM)
# METHOD: PBM binding z-score (relative to random genomic background probes); higher = stronger binding; sequences stand for … in GC…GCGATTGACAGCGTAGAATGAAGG
Answer Not satisfied if PBM binding z-score is under 2, and Satisfied if it is 2 or more.

PBM binding z-score >= 2 for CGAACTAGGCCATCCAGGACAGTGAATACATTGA ?
Not satisfied

Could you tell me if the measured PBM binding z-score of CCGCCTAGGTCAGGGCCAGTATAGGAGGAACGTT reaches 2 or more?
Not satisfied

Answer whether PBM binding z-score of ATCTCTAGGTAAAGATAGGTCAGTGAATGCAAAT is greater than or equal to 2.
Not satisfied

Given the entry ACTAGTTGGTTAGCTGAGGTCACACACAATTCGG , answer whether its PBM binding z-score meets or surpasses 2.
Satisfied

Check the entry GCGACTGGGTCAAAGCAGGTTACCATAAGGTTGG : does PBM binding z-score equal or exceed 2?
Satisfied

I'd appreciate it if you could say whether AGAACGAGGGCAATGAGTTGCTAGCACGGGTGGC has PBM binding z-score at least equal to 2.
Not satisfied

Hi team, for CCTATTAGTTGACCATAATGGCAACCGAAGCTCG , is the recorded PBM binding z-score at or above 2?
Not satisfied

Please tell me: is the sequence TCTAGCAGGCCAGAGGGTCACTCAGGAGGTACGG at or over 2 in terms of PBM binding z-score?
Satisfied

# check: PBM binding z-score of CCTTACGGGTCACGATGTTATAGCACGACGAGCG is greater than or equal to 2
Satisfied

Determine whether this sequence has PBM binding z-score no lower than 2: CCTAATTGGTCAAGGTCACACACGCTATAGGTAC
Satisfied

Item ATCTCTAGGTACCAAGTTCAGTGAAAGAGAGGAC with PBM binding z-score of 2 or above?
Not satisfied

Quick check: does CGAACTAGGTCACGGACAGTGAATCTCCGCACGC have PBM binding z-score greater than or equal to 2?
Satisfied

---

# System: THRa:RXRa (NR concentration 90 nM, RXRa partner concentration 90 nM)
# METHOD: PBM binding z-score (relative to random genomic background probes); higher = stronger binding; sequences stand for … in GC…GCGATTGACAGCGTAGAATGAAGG
PROPERTY LABEL: PBM binding z-score
Just the number.

Give THRa:RXRa (NR concentration 90 nM, RXRa partner concentration 90 nM) PBM binding z-score for the following sequence: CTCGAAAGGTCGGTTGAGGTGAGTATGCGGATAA
5.15

Please look at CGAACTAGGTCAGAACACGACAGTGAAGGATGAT and tell me its recorded PBM binding z-score on THRa:RXRa (NR concentration 90 nM, RXRa partner concentration 90 nM).
1.31

Please indicate recorded PBM binding z-score of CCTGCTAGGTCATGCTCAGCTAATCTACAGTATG measured with THRa:RXRa (NR concentration 90 nM, RXRa partner concentration 90 nM).
2.57

Enter measured PBM binding z-score, system THRa:RXRa (NR concentration 90 nM, RXRa partner concentration 90 nM), for the sequence shown: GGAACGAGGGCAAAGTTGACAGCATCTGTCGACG
1.67

Please report the measured PBM binding z-score for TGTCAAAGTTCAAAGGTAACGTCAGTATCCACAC tested on THRa:RXRa (NR concentration 90 nM, RXRa partner concentration 90 nM).
3.51

Provide the reported PBM binding z-score (system: THRa:RXRa (NR concentration 90 nM, RXRa partner concentration 90 nM)) for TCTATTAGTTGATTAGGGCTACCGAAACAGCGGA
0.166

Find the measured PBM binding z-score of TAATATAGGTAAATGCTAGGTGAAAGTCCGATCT with THRa:RXRa (NR concentration 90 nM, RXRa partner concentration 90 nM) as test system.
1.4

For THRa:RXRa (NR concentration 90 nM, RXRa partner concentration 90 nM), give the measured PBM binding z-score of the entry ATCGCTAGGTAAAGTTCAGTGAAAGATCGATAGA
0.617

Return reported PBM binding z-score for target or system THRa:RXRa (NR concentration 90 nM, RXRa partner concentration 90 nM), item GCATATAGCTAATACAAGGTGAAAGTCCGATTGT .
1.43

Enter PBM binding z-score (test system THRa:RXRa (NR concentration 90 nM, RXRa partner concentration 90 nM)) for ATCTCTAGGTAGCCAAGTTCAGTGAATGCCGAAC
0.48

# assay system THRa:RXRa (NR concentration 90 nM, RXRa partner concentration 90 nM): give PBM binding z-score of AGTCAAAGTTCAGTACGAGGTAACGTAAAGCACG
3.64

Jot down PBM binding z-score (THRa:RXRa (NR concentration 90 nM, RXRa partner concentration 90 nM)) of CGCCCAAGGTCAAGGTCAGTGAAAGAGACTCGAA .
4.42
